Assay: self-splicing fitness, log relative to wild type (ln ratio); higher = more splicing; Tetrahymena group I intron in knt gene, E. coli kanamycin selection, DiMSum; sequences stand for … in CUCUCU…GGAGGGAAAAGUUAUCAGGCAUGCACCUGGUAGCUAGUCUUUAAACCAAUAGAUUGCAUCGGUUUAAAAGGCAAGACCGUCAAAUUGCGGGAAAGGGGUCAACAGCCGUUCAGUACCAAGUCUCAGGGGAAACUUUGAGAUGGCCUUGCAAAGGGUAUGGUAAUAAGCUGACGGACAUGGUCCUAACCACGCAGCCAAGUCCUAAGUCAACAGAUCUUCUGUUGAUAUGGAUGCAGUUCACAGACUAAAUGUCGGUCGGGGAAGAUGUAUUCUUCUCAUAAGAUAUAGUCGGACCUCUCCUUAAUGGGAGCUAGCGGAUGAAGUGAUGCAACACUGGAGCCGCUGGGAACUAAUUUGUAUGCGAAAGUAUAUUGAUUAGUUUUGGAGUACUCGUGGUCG;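 further: selection with 25 µg/mL kanamycin versus none on LB agar overnight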
Settings: 37 °C
recorded-metric: self-splicing fitness (ln)

Fill blank: measured self-splicing fitness (ln) of the sequence "ACGCAGCAAUAUUACGUUAG" is ____.
-2.46

I'd like to know its self-splicing fitness (ln). The sequence in question is "AUUGAGCAAUAUUACGCCGU"
-2.56

What self-splicing fitness (ln) value was documented for this sequence, "GAGAAGCAAUAUUACGAAAA" ?
-2.2

Entry under review: "GCCAAGCAAUAUUACGGAUG" . Reported self-splicing fitness (ln)?
-0.693

Look at this sequence and give its reported self-splicing fitness (ln). "GAAUAGCAAUAUUACGCCCC"
-0.245

Reported self-splicing fitness (ln) for "GCUAAGCAAUAUUACGCGAA" : what is it?
-1.1

Data request, read-out self-splicing fitness (ln), for "AGAUAGCAAUAUUACGUGCA"
-0.616

Can you share its self-splicing fitness (ln)? I mean this sequence: "UUCCAGCAAUAUUACGUGAA"
-0.102

* * *

Assay: self-splicing fitness, log relative to wild type (ln ratio); higher = more splicing; Tetrahymena group I intron in knt gene, E. coli kanamycin selection, DiMSum; sequences stand for … in CUCUCU…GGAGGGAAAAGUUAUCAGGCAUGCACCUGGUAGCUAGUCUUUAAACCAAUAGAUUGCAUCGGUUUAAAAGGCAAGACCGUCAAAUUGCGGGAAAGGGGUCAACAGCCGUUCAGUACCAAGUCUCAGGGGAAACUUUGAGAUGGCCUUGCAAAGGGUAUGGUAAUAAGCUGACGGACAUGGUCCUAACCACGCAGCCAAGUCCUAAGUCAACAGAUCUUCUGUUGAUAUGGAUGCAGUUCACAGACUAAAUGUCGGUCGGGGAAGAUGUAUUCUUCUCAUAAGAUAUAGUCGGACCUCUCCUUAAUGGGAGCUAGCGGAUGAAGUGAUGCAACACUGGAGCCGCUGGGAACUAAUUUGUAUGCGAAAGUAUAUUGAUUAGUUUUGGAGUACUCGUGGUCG
Details: 37 °C
Label scheme, based on self-splicing fitness (ln): low interval: < -2; middle interval: ≥ -2 and < -0.9; high interval: ≥ -0.9

Which category does the recorded self-splicing fitness (ln) put "UGAUAGCAAUAUUACGUUCA" in?
high interval

Into which category would you place "AGCAAGCAAUAUUACGGAAG" ?
low interval

Category of "UGUGAGCAAUAUUACGCACG" , please.
middle interval

Each sequence maps to one class by self-splicing fitness (ln). Which class for "CGCGAGCAAUAUUACGCAAU" ?
low interval

Each sequence maps to one class by self-splicing fitness (ln). Which class for "CUGAAGCAAUAUUACGGCAU" ?
low interval

Which class does "UCUCAGCAAUAUUACGGGUG" fall in?
high interval

The entry to classify is "UACCAGCAAUAUUACGCUUC" ; which class holds it?
low interval

Tag the class for "CUCGAGCAAUAUUACGGGUU"
low interval

Tag the class for "CAGCAGCAAUAUUACGUGCU"
middle interval

In plain terms, what class is "GGAUAGCAAUAUUACGGGAU" ?
low interval

Determine which band this sequence sits in: "CCCAAGCAAUAUUACGCCAU"
low interval

Class (by measured self-splicing fitness (ln)) for "CUUAAGCAAUAUUACGAACU"
low interval

Entry "GGAGAGCAAUAUUACGGCCG" belongs to which category?
low interval

Field: class (self-splicing fitness (ln)) — entry: "GUCAAGCAAUAUUACGCCUU"
high interval

Class (by measured self-splicing fitness (ln)) for "GCAGAGCAAUAUUACGGAAU"
middle interval

Exercise: read the entry "ACUCAGCAAUAUUACGGGGU" and state which class it falls under.
low interval

Determine which band this sequence sits in: "UGCUAGCAAUAUUACGCUAU"
high interval

Would you mind sorting "GUUUAGCAAUAUUACGAAAG" into the appropriate category?
high interval

Using the reported self-splicing fitness (ln), which band applies to "GUUGAGCAAUAUUACGUAUC" ?
middle interval

Bin this entry: "ACCAAGCAAUAUUACGCUUU"
middle interval

Hey, which category is "AAGUAGCAAUAUUACGGAUU" in, do you know?
high interval

Categorize the following entry: "GGCAAGCAAUAUUACGAAGA"
high interval

Quick check: band for "GCGGAGCAAUAUUACGAUCU"
high interval

Into which bin does this sequence go? "GCGGAGCAAUAUUACGAAAU"
middle interval

Entry "UACGAGCAAUAUUACGAGCA" belongs to which category?
high interval

Please let me know in which category the item "GAAUAGCAAUAUUACGUGAG" belongs.
high interval

Just checking, what class would you give "UAUCAGCAAUAUUACGCCAG" here?
high interval

Please report the category associated with "GAAGAGCAAUAUUACGUUAC" , nothing else.
low interval

// bin(item) where item = "CACUAGCAAUAUUACGAAGA"
low interval

Hi, small favor: classify "CUUCAGCAAUAUUACGUUUA" by its self-splicing fitness (ln) when you get a moment.
low interval

* * *

Experiment: self-splicing fitness, log relative to wild type (ln ratio); higher = more splicing; Tetrahymena group I intron in knt gene, E. coli kanamycin selection, DiMSum; sequences stand for … in CUCUCU…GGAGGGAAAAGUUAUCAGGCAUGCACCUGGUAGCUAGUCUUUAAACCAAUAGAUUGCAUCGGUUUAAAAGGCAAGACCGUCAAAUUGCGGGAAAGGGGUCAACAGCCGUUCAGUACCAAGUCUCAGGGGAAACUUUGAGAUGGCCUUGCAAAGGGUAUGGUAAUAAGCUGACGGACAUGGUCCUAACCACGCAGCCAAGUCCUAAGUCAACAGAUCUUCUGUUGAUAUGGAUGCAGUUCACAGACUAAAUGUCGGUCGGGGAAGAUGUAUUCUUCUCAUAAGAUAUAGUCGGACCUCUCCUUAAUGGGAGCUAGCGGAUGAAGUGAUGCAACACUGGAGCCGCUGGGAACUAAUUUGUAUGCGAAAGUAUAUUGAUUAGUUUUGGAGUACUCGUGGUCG
Conditions: 37 °C
Would you mind telling me the reported self-splicing fitness (ln) of each entry?
No unit in the answer, please; the number alone is enough.

Tell me the measured self-splicing fitness (ln) of "UAUUAGCAAUAUUACGACGG" , please.
0.0207

Please look up its self-splicing fitness (ln): "GCCUAGCAAUAUUACGGUGU"
0.0553

Please look up its self-splicing fitness (ln): "CUAGAGCAAUAUUACGUUGU"
-2.5

Look up self-splicing fitness (ln): "AUGAAGCAAUAUUACGGGAC"
-1.65

self-splicing fitness (ln) lookup needed for "AUGUAGCAAUAUUACGCCCU" , thanks.
0.0833

# query: self-splicing fitness (ln) of entry "CGUCAGCAAUAUUACGUUAC"
-3.22

I have this sequence here, "AGACAGCAAUAUUACGCCAA" , and I need its recorded self-splicing fitness (ln).
-1.1

GET /values?readout=self-splicing fitness (ln)&item= "ACGAAGCAAUAUUACGUCGU"
-3.5

Recorded self-splicing fitness (ln) for "CCGCAGCAAUAUUACGACAC" , please?
-2.71

State the recorded self-splicing fitness (ln) for this entry: "UGGUAGCAAUAUUACGAGCG"
-0.521

Need self-splicing fitness (ln) of "UCUGAGCAAUAUUACGUUGG" , thanks.
-0.905

// lookup self-splicing fitness (ln) for "CUAUAGCAAUAUUACGGGCU"
-3.38

Endpoint output: self-splicing fitness (ln) of "AUACAGCAAUAUUACGUUAC" . Value?
-2.79

Form field: reported self-splicing fitness (ln) of "AUUGAGCAAUAUUACGAGAC"
-0.883

# query: self-splicing fitness (ln) of entry "ACAUAGCAAUAUUACGGUCA"
0.165

State the recorded self-splicing fitness (ln) for this entry: "ACCUAGCAAUAUUACGCAGC"
-1.46

Provenance of the data: the supplement of paper PMC7877785
